The entries below are paired with their reported TI of ischemic treated muscle.
- Tested on: skeletal muscle of the rat (chronic ischemic)
- PROTOCOL: Effect on the contractility of the skeletal muscle after chronic ischemia (tiring index)
- Format: in vivo, rat (male Wistar)
- MEASUREMENT CONDITIONS: 6 mg/kg p.o. over 7 days, n = 4-6; tiring index = maximum contractility / residual force after 5 min stimulation
MEASURED ATTRIBUTE: TI of ischemic treated muscle

{"columns": ["COMPOUND", "MEASURED ATTRIBUTE", "OBSERVED"],
 "data": [
  ["CC1CCCCN1CCCNS(=O)(=O)c1cn(C)cn1.Cl (stereo not shown) [Example 17]", "TI of ischemic treated muscle", 2.04],
  ["Cn1cnc(S(=O)(=O)N2CCN(c3ccc(O)cc3)CC2)c1 [Example 25]", "TI of ischemic treated muscle", 2.11],
  ["CCOC(=O)COc1ccc(N2CCN(S(=O)(=O)c3ncn(C)c3Cl)CC2)cc1 [Example 58]", "TI of ischemic treated muscle", 2.07],
  ["Cn1cnc(S(=O)(=O)Oc2ccc(N3CCN(S(=O)(=O)c4ncn(C)c4Cl)CC3)cc2)c1Cl [Example 41]", "TI of ischemic treated muscle", 2.18],
  ["CN(CCCNS(=O)(=O)c1cn(C)cn1)Cc1ccccc1 [Example 28]", "TI of ischemic treated muscle", 2.27],
  ["Cl.Cn1cnc(S(=O)(=O)NCc2ccc(CN3CCOCC3)cc2)c1 [Example 14]", "TI of ischemic treated muscle", 2.57],
  ["Cn1cnc(S(=O)(=O)NCCc2ccc(O)cc2)c1Cl [Example 46]", "TI of ischemic treated muscle", 2.05],
  ["CNCCCNS(=O)(=O)c1cn(C)cn1.Cl [Example 62]", "TI of ischemic treated muscle", 2.5],
  ["Cl.Cn1cncc1S(=O)(=O)NCCCN1CCOCC1 [Example 53]", "TI of ischemic treated muscle", 3.18],
  ["CC(=O)CCCCn1c(=O)c2c(ncn2C)n(C)c1=O [Pentoxyfylline, 1-(5-oxohexyl)-3,7-dimethylxanthine, reference compound]", "TI of ischemic treated muscle", 3.20],
  ["Cn1cnc(S(=O)(=O)NCCCCCCNS(=O)(=O)c2ncn(C)c2Cl)c1Cl [Example 47]", "TI of ischemic treated muscle", 2.46],
  ["CN1CCCC1CCNS(=O)(=O)c1cn(C)cn1.Cl (stereo not shown) [Example 21]", "TI of ischemic treated muscle", 2.34],
  ["Cl.Cn1cnc(S(=O)(=O)NCCCCN2CCOCC2)c1 [Example 10]", "TI of ischemic treated muscle", 2.19],
  ["Cn1cnc(S(=O)(=O)NCCCN2CCOCC2)c1 [Example 7]", "TI of ischemic treated muscle", 2.79],
  ["Cn1cnc(S(=O)(=O)NCCc2ccc(O)cc2)c1 [Example 45]", "TI of ischemic treated muscle", 2.14],
  ["Cn1cnc(S(=O)(=O)N2CCSCC2)c1 [Example 42]", "TI of ischemic treated muscle", 2.84],
  ["Cl.Cn1cnc(S(=O)(=O)NCCCN2CCOCC2)c1Cl [Example 32]", "TI of ischemic treated muscle", 2.51],
  ["Cn1cnc(S(=O)(=O)NCCCCCCNS(=O)(=O)c2cn(C)cn2)c1 [Example 54]", "TI of ischemic treated muscle", 2.55],
  ["Cl.Cn1ccnc1S(=O)(=O)NCCN1CCOCC1 [Example 30]", "TI of ischemic treated muscle", 2.82]
]}

###

- Tested on: laser-induced thrombosis in mesenterial arterioles
- PROTOCOL: Inhibition of laser-induced thrombosis in mesenterial arterioles of the rat
- Format: in vivo, rat (female Sprague-Dawley)
- MEASUREMENT CONDITIONS: Rattus norvegicus, po; 20 mg/kg p.o.; read-out: Percentage change vs control (inhibition of laser-induced thrombosis)
MEASURED ATTRIBUTE: inhibition in vivo at 20 mg/kg (%)

{"columns": ["COMPOUND", "SUBJECT OF TEST", "OBSERVED"],
 "data": [
  ["Cl.Cn1cnc(S(=O)(=O)NCCCN2CCSCC2)c1 [Example 13, hydrochloride]", "laser-induced thrombosis in mesenterial arterioles", 14],
  ["CN1CCN(CCCNS(=O)(=O)c2cn(C)cn2)CC1", "laser-induced thrombosis in mesenterial arterioles", 23],
  ["Cl.Cn1cnc(S(=O)(=O)NCc2ccc(CN3CCOCC3)cc2)c1 [Example 14, hydrochloride]", "laser-induced thrombosis in mesenterial arterioles", 13],
  ["Cn1cnc(S(=O)(=O)O)c1", "laser-induced thrombosis in mesenterial arterioles", 23],
  ["CC(CNS(=O)(=O)c1cn(C)cn1)CN1CCOCC1.Cl (stereo not drawn) [Example 12, hydrochloride]", "laser-induced thrombosis in mesenterial arterioles", 24],
  ["CN1CCCC1CCNS(=O)(=O)c1cn(C)cn1.Cl (stereo not drawn) [Example 21, hydrochloride]", "laser-induced thrombosis in mesenterial arterioles", 24]
]}

###

- PROTOCOL: Acute toxicity (LD50 range)
- MEASUREMENT CONDITIONS: mouse, in vivo, iv, single administration, NMRI mice, 7 days
Below: a set of entries, each annotated with reported LD50 at 168 h.

{"columns": ["COMPOUND", "LD50 at 168 h"],
 "data": [
  ["Cl.Cn1cnc(S(=O)(=O)NCc2ccc(CN3CCOCC3)cc2)c1", "> 100 mg/kg"],
  ["Cn1cnc(S(=O)(=O)O)c1Cl", "> 200 mg/kg"],
  ["Cl.Cn1cncc1S(=O)(=O)NCCCN1CCOCC1", "> 100 mg/kg"],
  ["CN1CCN(CCCNS(=O)(=O)c2cn(C)cn2)CC1", "> 100 mg/kg"],
  ["Cl.Cn1cnc(S(=O)(=O)NCCCN2CCOCC2)c1Cl", "> 200 mg/kg"],
  ["Cn1cnc(S(=O)(=O)NCCC[N+]2(C)CCOCC2)c1", "> 100 mg/kg"],
  ["Cl.Cn1ccnc1S(=O)(=O)NCCCN1CCOCC1", "> 100 mg/kg"],
  ["Cn1cnc(S(=O)(=O)NCCCN2CCOCC2)c1", "> 100 mg/kg"],
  ["CC(CNS(=O)(=O)c1cn(C)cn1)CN1CCOCC1.Cl (stereo not drawn)", "> 100 mg/kg"],
  ["Cl.Cn1cnc(S(=O)(=O)NCCCCN2CCOCC2)c1", "> 100 mg/kg"],
  ["Cl.Cn1ccnc1S(=O)(=O)NCCN1CCOCC1", "> 100 mg/kg"],
  ["Cl.Cn1cnc(S(=O)(=O)NCCCCCN2CCOCC2)c1Cl", "> 100 mg/kg"]
]}

###

change in vivo at 6 mg/kg values by entry
- System: skeletal muscle of the rat (chronic ischemic)
- PROTOCOL: Effect on the contractility of the skeletal muscle after chronic ischemia (tiring index)
- Assay type: in vivo, rat (male Wistar)
- MEASUREMENT CONDITIONS: Rattus norvegicus, po, 168 h; 6 mg/kg p.o. over 7 days, n = 4-6; smaller value = more effective; read-out: Percentage change (TI of ischemic treated muscle vs TI of normal non-treated muscle)

{"columns": ["MOLECULE", "UNIT ANNOTATION", "change in vivo at 6 mg/kg"],
 "data": [
  ["Cl.Cn1cnc(S(=O)(=O)NCCN2CCCC2)c1 [Example 20, hydrochloride]", "%", 23.1],
  ["Cl.Cn1cnc(S(=O)(=O)NCCCN2CCSCC2)c1 [Example 13, hydrochloride]", "%", -10.1],
  ["CN(CCCNS(=O)(=O)c1cn(C)cn1)Cc1ccccc1", "%", 14.6],
  ["Cl.Cn1cnc(S(=O)(=O)NCCCCN2CCOCC2)c1 [Example 10, hydrochloride]", "%", -3.6],
  ["Cn1cnc(S(=O)(=O)N2CCN(c3ccc(O)cc3)CC2)c1", "%", 6.6],
  ["Cl.Cn1cnc(S(=O)(=O)NCCCCCN2CCOCC2)c1 [Example 11, hydrochloride]", "%", 22.9],
  ["CCOC(=O)COc1ccc(N2CCN(S(=O)(=O)c3ncn(C)c3Cl)CC2)cc1", "%", -1.9],
  ["Cn1cnc(S(=O)(=O)Oc2ccc(N3CCN(S(=O)(=O)c4ncn(C)c4Cl)CC3)cc2)c1Cl", "%", 18.5],
  ["Cl.Cn1cncc1S(=O)(=O)NCCCN1CCOCC1 [Example 53, hydrochloride]", "%", -3.3],
  ["Cl.Cn1cnc(S(=O)(=O)NCCCCCN2CCOCC2)c1Cl [Example 34, hydrochloride]", "%", 0],
  ["Cl.Cn1ccnc1S(=O)(=O)NCCCN1CCOCC1 [Example 29, hydrochloride]", "%", 38.4],
  ["Cn1cnc(S(=O)(=O)NCCc2ccc(OCC(=O)O)cc2)c1Cl", "%", 17.4],
  ["COCCN(CCCNS(=O)(=O)c1cn(C)cn1)CCOC", "%", 23.1],
  ["Cn1cnc(S(=O)(=O)N2CCSCC2)c1", "%", 24.6],
  ["Cn1cnc(S(=O)(=O)NCCc2ccc(O)cc2)c1Cl", "%", -6.4],
  ["Cn1cnc(S(=O)(=O)O)c1", "%", 7.1],
  ["CNCCCNS(=O)(=O)c1cn(C)cn1.Cl [Example 62, hydrochloride]", "%", 27.8],
  ["Cn1cnc(S(=O)(=O)NCCCCCCNS(=O)(=O)c2cn(C)cn2)c1", "%", 37.8],
  ["Cn1cnc(S(=O)(=O)NCCc2ccc(OCC(=O)O)cc2)c1", "%", 23.7],
  ["Cn1cnc(S(=O)(=O)NC(CN2CCOCC2)CN2CCOCC2)c1", "%", 10.1],
  ["Cl.Cn1cnc(S(=O)(=O)NCCCN2CCOCC2)c1Cl [Example 32, hydrochloride]", "%", 6.4],
  ["CC1CCCCN1CCCNS(=O)(=O)c1cn(C)cn1.Cl (stereo not shown) [Example 17, hydrochloride]", "%", -14.3],
  ["Cn1cnc(S(=O)(=O)NCCCN2CCOCC2)c1", "%", 0.3],
  ["CC(=O)CCCCn1c(=O)c2c(ncn2C)n(C)c1=O [Pentoxyfylline, 1-(5-oxohexyl)-3,7-dimethylxanthine, reference compound]", "%", 43.5],
  ["CCCCN(CCCN1CCOCC1)S(=O)(=O)c1cn(C)cn1.Cl [Example 15, hydrochloride]", "%", 10.9],
  ["Cl.Cn1ccnc1S(=O)(=O)NCCN1CCOCC1 [Example 30, hydrochloride]", "%", -14.2],
  ["CN1CCN(CCCNS(=O)(=O)c2cn(C)cn2)CC1", "%", 32.6],
  ["Cc1nc(S(=O)(=O)NCCCN2CCOCC2)cn1C.Cl [Example 33, hydrochloride]", "%", 12.2]
]}

Values were extracted from patent US5232922A.
